Tested on: HEK-293T
Experiment: Multiplex assay against HEK293T
Format: toxicity, cell-based
Conditions: human, 24 h, 10 µM, compound concentration 10 uM, replicate 2
The following compounds are shown together with reported Population Apoptotic (%) values.
# unit: % | format: bare number

Field: example entries. Status: answers known.
Cc1nc2ccc(Oc3ccc(F)cc3)cc2c(=O)n1C[C@H]1CCCN(C(C)C)C1.Cl | 68
CCCC(CCC)C(=O)O | 23
O=C(O)Cc1ccccc1Nc1c(Cl)cccc1Cl | 49
C[C@H](NC(=O)c1c(C(F)F)nn(C)c1Oc1cccc(C(F)(F)F)c1)c1ccc(C(=O)O)cc1 | 55
O=C(O)c1cc2ccccc2c(Cc2c(O)c(C(=O)O)cc3ccccc23)c1O | 41
CN(C)c1ccnc2sc3c(=O)n(N4CCCCCC4)cnc3c12 | 66
O=C(NCCO)c1cccc(-c2cc(Nc3ccc(OC(F)(F)F)cc3)ncn2)c1 | 50
CN1CCN2c3ncccc3Cc3ccccc3C2C1 (stereo not given) | 32
N[C@@]1(C(=O)O)CO[C@H]2[C@H](C(=O)O)[C@H]21 | 43

API: the following record is the query input.
Task: Find Population Apoptotic (%) (HEK-293T) for the entry COc1ccc2c(c1)C(C(=O)N(Cc1ccc(N(C)C)cc1)c1ccc(C(C)C)cc1)CCC2.Cl (stereo not given)
Output: 45

====

Test system: HEK-293T
Assay: Multiplex assay against HEK293T
Type: toxicity, cell-based
Conditions: human, 24 h, 10 µM, compound concentration 10 uM, replicate 2
Labelling field: enter TRUE if recorded Population Hoechst High Intensity Objects (%) is less than 8%. Enter FALSE if it equals or exceeds that cut-off.

Worked set:
CN1CCN2c3ncccc3Cc3ccccc3C2C1 (configuration not stated) | TRUE
C[C@H]1[C@H]2CC[C@H]3[C@@H]4CC=C5C[C@@H](N(C)C)CC[C@]5(C)[C@H]4CC[C@]23CN1C | FALSE
COc1cc(C(=O)N(CCCc2ccccc2)Cc2ccc(CC(=O)O)cc2)cc(OC)c1C | TRUE
C[C@H](NC(=O)c1c(C(F)F)nn(C)c1Oc1cccc(C(F)(F)F)c1)c1ccc(C(=O)O)cc1 | TRUE

Task: Consider the compound CSc1ccccc1N1CCN(CCCCCC(=O)NC2CCCc3ccccc32)CC1.Cl (configuration not stated) . Is its Population Hoechst High Intensity Objects (%) strictly less than 8%?
Output: FALSE

====

Test system: Fibroblast
Experiment: Multiplex assay against human fibroblast
Type: toxicity, cell-based
Settings: 24 h, 10 µM, compound concentration 10 uM, replicate 1
PROPERTY_MEASURED: Population Fragmented Nuclei (%)
Report the value in % with no unit label.

Some solved cases for reference:
Cc1ccccc1C(=O)Nc1ccc(C(=O)N2CCCC(N(C)C)c3ccccc32)cc1.Cl (configuration not stated) | 30
Cc1ccc(F)cc1C(=O)Nc1ccc(C(=O)N2Cc3cccn3Cc3ccccc32)c(Cl)c1 | 19
O=S(=O)(c1ccccc1)c1cnc2c(N3CCNCC3)cccc2c1 [INTEPIRDINE] | 28
Cc1ccc(C(C)(O)c2nc3ccccc3s2)c(C)c1 (configuration not stated) | 13
CSCC[C@H](NC=O)C(=O)N[C@@H](CC(C)C)C(=O)N[C@@H](Cc1ccccc1)C(=O)O | 19
c1cc(OCCCN2CCCCC2)ccc1CN1CCCCC1 | 24

Task: Observed Population Fragmented Nuclei (%) on Fibroblast for `O=C(O)Cc1ccccc1Nc1c(Cl)cccc1Cl` , please.
Output: 16

Task: Fill in the recorded Population Fragmented Nuclei (%) for this compound, with Fibroblast as test system: `C[C@H]1[C@H]2CC[C@H]3[C@@H]4CC=C5C[C@@H](N(C)C)CC[C@]5(C)[C@H]4CC[C@]23CN1C`
Output: 28

Task: Recorded Population Fragmented Nuclei (%) for `COc1cc(NC(=O)CCN2CCC(OC(=O)Nc3ccccc3-c3ccccc3)CC2)c(Cl)cc1CNC[C@H](O)c1ccc(O)c2[nH]c(=O)ccc12` with Fibroblast, please?
Output: 35

Task: Observed Population Fragmented Nuclei (%) on Fibroblast for `CCCn1c(=O)c2[nH]c(C3CCCC3)nc2n(CCC)c1=O` , please.
Output: 17

Task: Please state recorded Population Fragmented Nuclei (%) (tested on Fibroblast) of `CCOc1c2c(c(OCC)c3ncccc13)CN(c1ccc(CS(=O)(=O)NC(=O)Cc3ccccc3OC)cc1C)C2=O`
Output: 17

Task: Missing value: Population Fragmented Nuclei (%), Fibroblast, entry `O=C1COc2nccc(-c3ccccc3F)c2CN1Cc1cc(C(F)(F)F)cc(C(F)(F)F)c1` . Fill in?
Output: 18

Task: Notebook: pull reported Population Fragmented Nuclei (%) for Fibroblast, entry `C[C@H](NC(=O)c1c(C(F)F)nn(C)c1Oc1cccc(C(F)(F)F)c1)c1ccc(C(=O)O)cc1`
Output: 18

Task: Any idea what Population Fragmented Nuclei (%) came out for `CC1(COc2ccc3c(c2)ncn3-c2ccc3cccc(N4CCC(N)CC4)c3n2)COC1` on Fibroblast?
Output: 23

Task: I'm curious: which Population Fragmented Nuclei (%) was measured for `O=C(NCC(=O)N1CC[C@H](N[C@H]2CC[C@@](O)(c3ccc(-c4ncccn4)cn3)CC2)C1)c1cccc(C(F)(F)F)c1` tested on Fibroblast?
Output: 15

Task: Param readout = Population Fragmented Nuclei (%); param system = Fibroblast; param query = `N[C@@]1(C(=O)O)CO[C@H]2[C@H](C(=O)O)[C@H]21` ; response: value
Output: 14

Cited source: ChEMBL document CHEMBL5058577
